test system: MS2 coat protein; assay: apparent KD of MS2 coat protein; designed switch direction (-1 OFF switch, 1 ON switch): 1; higher = weaker reporter binding; details: input ligand: microRNA oligo, concentration not stated
apparent KD of MS2 coat protein for assorted sequences
Parameter: apparent KD of MS2 coat protein (nM)

* GCGAAAGCGGUAGGAUAUCUAGGAUAUGGGAAGAGCUAAGCUUGGAAGUCACUUCACCCAGAAGGAGAGAAGGACACCGAAAGG [pwkr ssNG2 2FMN + F9.3] (Eterna round: R96, puzzle: Same State NG 2) | 302
* GGAAACUUGAGAGGAUAUGUAGAGGAUCACCCUACAGAAGGCUCAUUUGAGAGGAUAUGUAGAGGAUCACCCUACAGAAGGCUC [pwkr ssNG DX.13] (Eterna round: R96, puzzle: Same State NG 1) | 26
* UUAAUGAUGUAAGGAUAUACAUGAGGAUUUCUCGUAGAAGGUACAGGACAUGAGGAUCACCCAUGUGUCGCUCAGAAGAGCGUA [Mat - Same State NG 1 - JL mod - D17] (Eterna round: R96, puzzle: Same State NG 1) | 505
* UUGUUUGGUAAAAUACAUGAGGAUCACCCAUGUUAUGGUGCAGAGGAUAUGCAUGUUUGAUUGUAGCAGAAGGCUGUUUGUUGU [JR_SSNG3_Sub035] (Eterna round: R96, puzzle: Same State NG 3) | 29.7
* GCUGCAAUUAACGCCUACAUGAGGAUCACCCAUGUAUGUAGGCAGGAUAUCGUUUGCAAAGCAAACGAGAAGGGCUGUAGUAGC [Mat - Same State NG 3 - JL Mod - D37] (Eterna round: R96, puzzle: Same State NG 3) | 83.4
* CUGCAACAUGAGGAUCACCCAUGUAACCCAAUUAUAGGAUAUGUGAUGGUGAUCGACAUGACAGAAGGGUGAUUGG [Arinra] (Eterna round: R96, puzzle: Same State 1) | 29.7
* GCCAACGCAUGAGGAUAUGGCACCUUAUUGGUGCCAGAAGGCAUGUGUAUUCACAUGAGGAUCACCCAUGUAUUAUAGUUGGCA [Fiskers NG1ss - 16] (Eterna round: R96, puzzle: Same State NG 1) | 132
* AUAGUUAGCGAAGGAUAUGGGAAAGGAAGUGUACCAGAAGGUCGGCUACUGGGCUUACAUGAGGAUCACCCAUGUCCCGGUAGC [PowerStrip SSNG 1.13] (Eterna round: R96, puzzle: Same State NG 1) | 9.15
* UUGCGGGCUUGAGGAUAUUGAGUACAUAUGUUUAACAUGAGGAUCACCCAUGUGGGUUGCGGUGUCGAGAAGGUGGCUUCCUGC [salish99_SSNG2_r04_814] (Eterna round: R96, puzzle: Same State NG 2) | 76.7
* GAGCUCGUGUGAGGAUAUGCCGCCGUUUCGGCUGCAGAAGGUGCUACGUUACAUGAGGAUCACCCAUGUCUCUGUUGUUUCGUA [salish99_SSNG1_r04_960] (Eterna round: R96, puzzle: Same State NG 1) | 43.3
* AAUUAAGAUCAAGGAUAUCACGUCGUUUAGACGUGAGAAGGUGAUAAUUACAUGAGGAUCACCCAUGUAUAACAUGAAUUAAUU [SSNG1/9-B3] (Eterna round: R96, puzzle: Same State NG 1) | 27.5
* GCGAGCGUACUUGCAGACAUGAGGAUCACCCAUGUAACUGGACAGGAUAUGGUACCGUUUCGGUACCAGAAGGGUUUAUUCAUG [JL SSNG3 3.56] (Eterna round: R96, puzzle: Same State NG 3) | 63.5
* ACAUGAGACCAAGGAUAUCUUGUACCUACAUGUGACAUGAGGAUCACCCAUGUGGUAAGUAUGAGGGAGAAGGUGGAGAUAUGU [Equivalence 25 - Jieux - Same State NG 2] (Eterna round: R96, puzzle: Same State NG 2) | 18.8
* GAAAAACAUGAGGAUCACCCAUGUGAGAAUAUGGGAGGAUAUUCAAAGACGAAAGUCAAAGAAGAAGGCCUAAAAG [Mat - Same State 1 - Eli mod - 37] (Eterna round: R96, puzzle: Same State 1) | 143
* AUUCGUUUGAUAGGAUAUCGCUAUACAUGAGGAUCACCCAUGUUUACCACGCUGGUUUUUCGUACCGAGAAGGAUUCUGAUGAU [JL JR sub007 mod 3] (Eterna round: R96, puzzle: Same State NG 2) | 27.3
* GUGCUCGUGUGAGGAUAUGCUUCCGGUUCGGCUGCAGAAGGUACUAUUAUACAUGAGGAUCACCCAUGUCGCUUUUCUCCGGUG [salish99_SSNG1_r04_916] (Eterna round: R96, puzzle: Same State NG 1) | 17.6
* UUAAUGAAGUAAGGAUAUACAUGAGGAUCACUCGUAGAAGGUACUAUACAUGAGGAUCACCCAUGUGCCGGUCAGAAGACUGGA [Mat - Same State NG 1 - JL mod - D5] (Eterna round: R96, puzzle: Same State NG 1) | 534

====

tested on: K4 kissing-loop RNA reporter; experiment: apparent KD of K4 kissing-loop reporter; higher = weaker reporter binding; settings: Eterna round: R107; input ligand: arginine 13.2 mM;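 further: bound reporter read as fluorescence of individual clusters on recovered sequencing chips by microscopy, with normalized cluster intensities fitted with a binding model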
apparent KD of K4 kissing-loop reporter for assorted sequences
Parameter: apparent KD of K4 kissing-loop reporter (nM)

• GGAUAGGACAGAGGAUAUCCUAAAGAGGCAAGAAUAACUUGUCUCAAAUGGAUGACCAGUGAUGUUGGAGAAGGCUGUCCUAUCG [FmnBX 6 - #SwitchBubble #StaticStem] = 194
• UGAUAGGACAGAAGGAGCGGAAUGCUGUCCAAAAGGACAGCAAAUAUAACAGGAGUGAUGUUCCAGGUAGGUCGCUGUCCUAUCU [ArgBX 21 #SwitchBubble #StaticStem] = 197
• AGACGCCAGUCGGCCGCCACUCACAGCAGUGAUGUUGCUGAAAAUCUAGAAGAGUGAUGUUCUUAGAGGACCGGGACUCCAGUCG [Same State Tryptophan B GF 6] = 153

====

system: MS2 coat protein; experiment: apparent KD of MS2 coat protein; designed switch direction (-1 OFF switch, 1 ON switch): 1; higher = weaker reporter binding; conditions: input ligand: none
Parameter: apparent KD of MS2 coat protein (nM)

- AGCUAGUACGAAGGAUAUACAAACAUGAGGAUCACCCAUGUAUACAUGGUUAGAUGUGACUACAUGUAGAAGGUCGUACUAGCA [SameState NG2 #15] (Eterna round: R96, puzzle: Same State NG 2): 443
- UUGUUUGGUAAAAUACAUGAGGAUCACCCAUGUUAUGGUGCAGAGGAUAUGCAUGUUUGAUUGUAGCAGAAGGCUGUUUGUUGU [JR_SSNG3_Sub035] (Eterna round: R96, puzzle: Same State NG 3): 42.5
- UUGUGUUUGCGAGGAUAUCGUUUGUUGAAGUUACGAGAAGGCGCUCUCUUUACAUGAGGAUCACCCAUGUCUUUGAUGCAUGAU [JR_SSNG1_Sub072] (Eterna round: R96, puzzle: Same State NG 1): 75.1
- GAGCCAGUCCGAGGAUAUUCAUAUUAACACAUGAGGAUCACCCAUGUAGGCUCAGAAGAGCCCUGGGAGAAGGCGGACUGGCUC [SS-NG2-LRO15] (Eterna round: R96, puzzle: Same State NG 2): 1100
- GGAGCCGGCCUAGGAUAUUUCAUAAAAUAACAUGAGGAUCACCCAUGUAGGCCAGAAGGCCUUGGGAAGAAGGAGGUCGGCUCC [Loop Effect - U28] (Eterna round: R96, puzzle: Same State NG 2): 44.4

====

test system: MS2 coat protein; test: apparent KD of MS2 coat protein; designed switch direction (-1 OFF switch, 1 ON switch): 1; higher = weaker reporter binding; conditions: input ligand: FMN 200 uM
Please note: 1 applies when apparent KD of MS2 coat protein is 90 nM or greater, and -1 applies otherwise.

- GUUACAUGAGGAUCACCCAUGUAUGUGUGGGAGUAAGUGUCUUAGGAUAUCUAGUAUUUAAUGUAAGAGAAGGAAGAUUGUUGU [JMF's solution 64] (Eterna round: R96, puzzle: Same State NG 3): 1
- GCUAGAAAUAAAGCCAACAUGAGGAUCACCCAUGUAUGUUGGCAGGAUAUCGUUUGCUUUGCAAACGAGAAGGGCCAAACUAGC [Mat - Same State NG 3 - JL Mod - D1] (Eterna round: R96, puzzle: Same State NG 3): -1
- CAGCUCGUGUGAGGAUAUGCCGCCGUUUCGGCUGCAGAAGGUGCUACGUUACAUGAGGAUCACCCAUGUCUCUGUUGUUUCGUG [salish99_SSNG1_r04_963] (Eterna round: R96, puzzle: Same State NG 1): -1
- GCGAGCGUACUUGCAGACAUGAGGAUCACCCAUGUAACUGGACAGGAUAUGGUACCGUUUCGGUACCAGAAGGGUUUAUUCAUG [JL SSNG3 3.56] (Eterna round: R96, puzzle: Same State NG 3): -1
- UAUCCAUAGAUAGGAUAUUAGAGAACAUGAGGAUCACCCAUGUUUGGCUUGGUUUUAAGCUAAUCUGAGAAGGAUCUUGAUGAA [SameState NG2 #8] (Eterna round: R96, puzzle: Same State NG 2): -1
- GUGGUCAGACAUGAGGAUCACCCAUGUGGAAUAAAUAAGGGAGAGGAUAUUUAAUAUAGGAUAUAAAAGAAGGCUCGGUUGGUG (Eterna round: R96, puzzle: Same State NG 3): -1
- AUAAAACAUGAGGAUCACCCAUGUAGACGGAGAGCCGUCACAUAGGAUAUAGCCAGCGGUGUUGGCUAGAAGGGUGGUAGAAAA [Lavezaer] (Eterna round: R96, puzzle: Same State NG 3): -1
- GGCGUCUGUCAAGGAUAUGCUACCGUUUCGGUAGCAGAAGGUGAUCACAUGAGGAUCACCCAUGUUUAGGCCAACAGGCCCGCC (Eterna round: R96, puzzle: Same State NG 1): 1
- AGCUAUUAAUCAGGAUAUGGUGACAUGAGGAUCACCCAUGUAUAGAUGAUUAAAUGUGGUCUAUACUAGAAGGGAUUACUAACA [SameState NG2 #53] (Eterna round: R96, puzzle: Same State NG 2): 1
